assay: Pharmacokinetic study in SD rats, oral; type: in vivo; settings: Sprague-Dawley, rat, plasma, 5 mg/kg, read-out: elimination half-life t1/2 (converted)
MEASUREMENT_KIND: half-life
Could you kindly put the unit after your number?

Request: // returns reported half-life for input COc1ncc(-c2ccc3nccc(/C=C/C(=O)N4CCN(C)CC4)c3c2)cc1NS(=O)(=O)c1ccc(F)cc1F [8i]
Response: 1.73 h

###

test: Liver microsomal stability assay, HLM; settings: human, liver microsomes
MEASUREMENT_KIND: half-life
Could you kindly put the unit after your number?

Request: // returns reported half-life for input COc1ncc(-c2ccc3nccc(/C=C/C(=O)N4CCN(C)CC4)c3c2)cc1NS(=O)(=O)c1ccc(F)cc1F [8i]
Response: 1.25 h

###

assay: Liver microsomal stability assay, HLM; settings: human, liver microsomes
MEASUREMENT_KIND: remaining at 1 h (%)
Please reply with the bare figure in % and do not write the unit itself.

Request: // returns reported remaining at 1 h for input COc1ncc(-c2ccc3nccc(/C=C/C(=O)N4CCN(C)CC4)c3c2)cc1NS(=O)(=O)c1ccc(F)cc1F
Response: 57.1

###

assay: Pharmacokinetic study in SD rats, oral; format: in vivo; conditions: Sprague-Dawley, rat, plasma, 5 mg/kg
MEASUREMENT_KIND: AUC(0-inf) (ng·h/mL)
Please reply with the bare figure in ng·h/mL and do not write the unit itself.

Request: // returns reported AUC(0-inf) for input COc1ncc(-c2ccc3nccc(/C=C/C(=O)N4CCN(C)CC4)c3c2)cc1NS(=O)(=O)c1ccc(F)cc1F [8i]
Response: 412

###

assay: in vitro; settings: human, microsomes
MEASUREMENT_KIND: CLint scaled
Could you kindly put the unit after your number?

Request: // returns reported CLint scaled for input C[C@]12CC[C@H]3[C@@H](CCC4=CC(=O)CC[C@@]43C)[C@@H]1CC[C@@H]2O [Testosterone]
Response: 91.1 mL/min/kg

###

assay: Liver microsomal stability assay, HLM; settings: human, liver microsomes
MEASUREMENT_KIND: CLint scaled (mL/min/kg)
Please reply with the bare figure in mL/min/kg and do not write the unit itself.

Request: // returns reported CLint scaled for input COc1ncc(-c2ccc3nccc(/C=C/C(=O)N4CCN(C)CC4)c3c2)cc1NS(=O)(=O)c1ccc(F)cc1F
Response: 16.6

###

experiment: Liver microsomal stability assay, RLM; details: Sprague-Dawley, rat, liver microsomes
MEASUREMENT_KIND: CLint scaled

Request: // returns reported CLint scaled for input COc1ncc(-c2ccc3nccc(/C=C/C(=O)N4CCN(C)CC4)c3c2)cc1NS(=O)(=O)c1ccc(F)cc1F [8i]
Response: < 17.3 mL/min/kg

###

target: PI3Kγ (Homo sapiens, UniProt P48736); assay: PI3Kγ enzymatic assay (ADP-Glo Luminescent assay); format: biochemical
Sequence (P48736 whole entry): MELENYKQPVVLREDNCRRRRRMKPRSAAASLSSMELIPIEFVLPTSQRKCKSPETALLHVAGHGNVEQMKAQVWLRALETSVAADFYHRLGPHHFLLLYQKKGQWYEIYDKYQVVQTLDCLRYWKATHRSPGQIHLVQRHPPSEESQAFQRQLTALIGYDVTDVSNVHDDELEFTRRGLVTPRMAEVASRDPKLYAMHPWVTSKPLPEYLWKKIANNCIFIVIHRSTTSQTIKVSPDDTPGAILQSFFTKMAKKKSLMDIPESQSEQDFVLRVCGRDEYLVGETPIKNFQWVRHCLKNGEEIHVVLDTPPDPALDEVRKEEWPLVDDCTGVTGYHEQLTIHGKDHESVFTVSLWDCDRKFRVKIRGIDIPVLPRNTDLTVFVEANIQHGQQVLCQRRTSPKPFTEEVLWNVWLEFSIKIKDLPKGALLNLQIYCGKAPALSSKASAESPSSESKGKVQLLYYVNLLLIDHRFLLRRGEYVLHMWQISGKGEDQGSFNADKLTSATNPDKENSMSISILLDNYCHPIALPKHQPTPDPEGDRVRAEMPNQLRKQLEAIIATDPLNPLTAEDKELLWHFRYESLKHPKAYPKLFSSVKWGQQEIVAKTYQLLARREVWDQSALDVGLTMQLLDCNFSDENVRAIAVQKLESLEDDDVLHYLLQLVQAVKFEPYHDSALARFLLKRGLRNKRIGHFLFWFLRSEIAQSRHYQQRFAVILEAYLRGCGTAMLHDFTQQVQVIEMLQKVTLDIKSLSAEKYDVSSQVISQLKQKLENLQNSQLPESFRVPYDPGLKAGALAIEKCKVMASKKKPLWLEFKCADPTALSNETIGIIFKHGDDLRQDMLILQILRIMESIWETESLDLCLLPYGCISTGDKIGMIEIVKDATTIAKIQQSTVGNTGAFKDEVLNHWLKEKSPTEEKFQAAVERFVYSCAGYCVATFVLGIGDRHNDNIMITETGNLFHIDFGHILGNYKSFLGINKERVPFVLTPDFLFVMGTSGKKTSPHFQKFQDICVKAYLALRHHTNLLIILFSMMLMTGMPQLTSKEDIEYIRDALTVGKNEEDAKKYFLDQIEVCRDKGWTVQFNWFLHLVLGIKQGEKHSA
MEASUREMENT_KIND: IC50 (nM)
Please reply with the bare figure in nM and do not write the unit itself.

Request: // returns reported IC50 for input COc1ncc(-c2ccc3nccc(-c4ccnnc4)c3c2)cc1NS(=O)(=O)c1ccc(F)cc1F [GSK2126458, reference compound]
Response: 0.44

###

test: Liver microsomal stability assay, RLM; conditions: Sprague-Dawley, rat, liver microsomes
MEASUREMENT_KIND: half-life

Request: // returns reported half-life for input COc1ncc(-c2ccc3nccc(/C=C/C(=O)N4CCN(C)CC4)c3c2)cc1NS(=O)(=O)c1ccc(F)cc1F
Response: > 145 min
